Below, each of the binders is paired with its reported TCR Mut RLU/WT RLU value.
target: KRAS G13D antigen (G13D-RT6, SEQ ID NO: 20) loaded on Lovo-DPA0301:DPB0501 cells (human); assay: cell-based or functional assay
Please reply with the bare figure in ratio and do not write the unit itself.

{"binder": "B8.2.4 TCR mutant β97V-E (TCR, V domains shown) V domain 1: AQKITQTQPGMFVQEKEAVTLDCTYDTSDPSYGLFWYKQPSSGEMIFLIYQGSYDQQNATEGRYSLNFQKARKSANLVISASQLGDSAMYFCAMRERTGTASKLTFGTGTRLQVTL V domain 2: DVKVTQSSRYLVKRTGEKVFLECVQDMDHENMFWYRQDPGLGLRLIYFSYDVKMKEKGDIPEGYSVSREKKERFSLILESASTNQTSMYLCASSQTEPPQHFGDGTRLSILE", "observed-result": 0.31}

**Q:** // Input: B8.2.4 TCR mutant β97V-S (TCR, V domains shown) V domain 1: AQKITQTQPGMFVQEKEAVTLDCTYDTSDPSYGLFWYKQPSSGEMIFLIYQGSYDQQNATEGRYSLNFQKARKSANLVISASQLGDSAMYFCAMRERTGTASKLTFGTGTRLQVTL V domain 2: DVKVTQSSRYLVKRTGEKVFLECVQDMDHENMFWYRQDPGLGLRLIYFSYDVKMKEKGDIPEGYSVSREKKERFSLILESASTNQTSMYLCASSQTSPPQHFGDGTRLSILE . Output its TCR Mut RLU/WT RLU only.
**A:** 0.78

**Q:** Look up and report measured TCR Mut RLU/WT RLU for this entry: B8.2.4 TCR mutant β97V-Y (TCR, V domains shown) V domain 1: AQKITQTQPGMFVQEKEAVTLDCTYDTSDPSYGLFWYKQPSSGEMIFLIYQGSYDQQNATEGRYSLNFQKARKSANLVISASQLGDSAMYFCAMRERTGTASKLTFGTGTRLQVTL V domain 2: DVKVTQSSRYLVKRTGEKVFLECVQDMDHENMFWYRQDPGLGLRLIYFSYDVKMKEKGDIPEGYSVSREKKERFSLILESASTNQTSMYLCASSQTYPPQHFGDGTRLSILE
**A:** 0.54
